TEST_PROTOCOL: Degradation of nine organochlorine pesticides by gamma irradiation in samples of P. quinquefolium (GC analysis)
Format: physicochemical
COND: 25 kGy gamma irradiation, P. quinquefolium samples, mean of three
OUTCOME_MEASURE: remaining concentration of organochlorine pesticides in samples
# output: numeric value plus its unit

Solved cases (3 shown):
compound=Clc1ccc(C(c2ccc(Cl)cc2)C(Cl)(Cl)Cl)cc1 obs_value="0.082 ppm"
compound=Cl[C@H]1[C@H](Cl)[C@@H](Cl)[C@@H](Cl)[C@H](Cl)[C@H]1Cl obs_value="0.089 ppm"
compound="O=S1OC[C@@H]2[C@H](CO1)[C@@]1(Cl)C(Cl)=C(Cl)[C@]2(Cl)C1(Cl)Cl (stereo partly shown) [Endosulfan-1]" obs_value="0.140 ppm"

Then this compound:
Exercise: Dear colleague, please send me the reported remaining concentration of organochlorine pesticides in samples for O=S1OC[C@@H]2[C@H](CO1)[C@]1(Cl)C(Cl)=C(Cl)[C@]2(Cl)C1(Cl)Cl (stereo partly shown) [Endosulfan-2] when you can.
Solution: 0.093 ppm

====

TEST_PROTOCOL: Concentration of marker components (ginsenosides) in P. quinquefolium samples after gamma irradiation (HPLC)
Format: physicochemical
COND: 20 kGy gamma irradiation, mean ± SD, three repeats
Experimental: Samples of P. quinquefolium that have respectively received gamma irradiation in dosages of 0, 10, 15, and 20 kGy were analyzed to find out the concentration of marker components therein, with the samples that have not received gamma irradiation as the control group. […]
OUTCOME_MEASURE: concentration of marker components of P. quinquefolium (ginsenoside)
# output: numeric value plus its unit

Solved cases (2 shown):
compound="CC(C)=CCC[C@](C)(O[C@@H]1O[C@H](CO)[C@@H](O)[C@H](O)[C@H]1O)[C@H]1CC[C@]2(C)[C@@H]1[C@H](O)C[C@@H]1[C@@]3(C)CC[C@H](O)C(C)(C)[C@@H]3[C@@H](O[C@@H]3O[C@H](CO)[C@@H](O)[C@H](O)[C@H]3O[C@@H]3O[C@@H](C)[C@H](O)[C@@H](O)[C@H]3O)C[C@]12C [Re, ginsenoside Re]" obs_value="14.53 ± 0.14 mg/g"
compound="CC(C)=CCC[C@](C)(O[C@@H]1O[C@H](CO)[C@@H](O)[C@H](O)[C@H]1O)[C@H]1CC[C@]2(C)[C@@H]1[C@H](O)C[C@@H]1[C@@]3(C)CC[C@H](O[C@@H]4O[C@H](CO)[C@@H](O)[C@H](O)[C@H]4O[C@@H]4O[C@H](CO)[C@@H](O)[C@H](O)[C@H]4O)C(C)(C)[C@@H]3CC[C@]12C [Rd, ginsenoside Rd]" obs_value="8.20 ± 0.17 mg/g"

Then this compound:
Exercise: Dear colleague, please send me the reported concentration of marker components of P. quinquefolium (ginsenoside) for CC(C)=CCC[C@](C)(O[C@@H]1O[C@H](CO[C@@H]2O[C@@H](CO)[C@H](O)[C@H]2O)[C@@H](O)[C@H](O)[C@H]1O)[C@H]1CC[C@]2(C)[C@@H]1[C@H](O)C[C@@H]1[C@@]3(C)CC[C@H](O[C@@H]4O[C@H](CO)[C@@H](O)[C@H](O)[C@H]4O[C@@H]4O[C@H](CO)[C@@H](O)[C@H](O)[C@H]4O)C(C)(C)[C@@H]3CC[C@]12C [Rc, ginsenoside Rc] when you can.
Solution: 14.46 ± 0.28 mg/g
